Reported Emax is given for each of the following molecules.
target: mGPR65 (Mus musculus); construct: expressed in transfected cells; host or cells: HeLa (ATCC CCL-2), lentiviral transduction, pLX317; test: cAMP detection in HeLa expression cell line, mGPR65; type: cell-based; settings: HeLa, 2nd mGPR column pair; relative to 100uM forskolin (100%) and DMSO (0%); NA = no activity; read-out: mGPR Max Activity %
Sequence (Q61038 whole entry): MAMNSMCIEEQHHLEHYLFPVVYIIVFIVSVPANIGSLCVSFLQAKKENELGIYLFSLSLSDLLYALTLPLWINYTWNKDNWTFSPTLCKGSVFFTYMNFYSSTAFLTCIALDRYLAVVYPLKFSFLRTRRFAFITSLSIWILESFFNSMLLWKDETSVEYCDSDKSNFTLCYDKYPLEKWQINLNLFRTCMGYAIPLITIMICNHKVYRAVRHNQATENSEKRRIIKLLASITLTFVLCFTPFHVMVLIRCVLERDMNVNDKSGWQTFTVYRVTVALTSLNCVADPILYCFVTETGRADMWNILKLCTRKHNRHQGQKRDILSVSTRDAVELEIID
Kindly format the answer as number then unit.

Provide Emax value for the following molecule: Cc1ccc(NC(=O)c2cnn3c(O)cc(-c4cnc(N5CCN(C)CC5)c(Cl)c4)nc23)cc1 42.5%

Provide Emax value for the following molecule: COc1cc(-c2cc(O)n3ncc(C(=O)Nc4ccc(C)cc4)c3n2)ccc1Cl 20.1%

Provide Emax value for the following molecule: COCc1ccc(-c2cc(O)n3ncc(C(=O)Nc4ccc(C(=O)OC)cc4)c3n2)cc1 57%

Provide Emax value for the following molecule: Cc1ccc(NC(=O)c2cnn3c(O)cc(-c4ccc(Cl)cc4)nc23)cc1 22.7%
